Assay: Pharmacokinetics in ABSSSI patients after single 1200 mg IV oritavancin (ORBACTIV) in 1000 mL D5W
Type: in vivo, human
Details: both sexes, human, plasma, iv, 1200 mg, mean, ABSSSI subjects, single 1200 mg IV dose over 3 hours (n = 297), read-out: AUC0-24
REPORTED PROPERTY: AUC(0-t) (µg·h/mL)

INSERT INTO measurements (mol_smiles, observed_value) VALUES
  ('CN[C@H](CC(C)C)C(=O)N[C@H]1C(=O)N[C@@H](CC(N)=O)C(=O)N[C@H]2C(=O)N[C@H]3C(=O)N[C@H](C(=O)N[C@H](C(=O)O)c4cc(O)cc(O)c4-c4cc3ccc4O)[C@H](O[C@H]3C[C@](C)(N)[C@@H](O)[C@H](C)O3)c3ccc(c(Cl)c3)Oc3cc2cc(c3O[C@@H]2O[C@H](CO)[C@@H](O)[C@H](O)[C@H]2O[C@H]2C[C@](C)(NCc3ccc(-c4ccc(Cl)cc4)cc3)[C@@H](O)[C@H](C)O2)Oc2ccc(cc2Cl)[C@H]1O', 1110);

* * *

Test: Double-blind pharmacokinetic study of a single 1200 mg IV dose of oritavancin in healthy volunteers
Format: in vivo
Conditions: human, plasma, Cohort 6: 1200 mg IV, HPBCD formulation, NS 250 mL, 1 h infusion, healthy subjects, average
REPORTED PROPERTY: AUC(0-inf) (µg·h/mL)

INSERT INTO assay_data (compound, measurement_unit, observed_value) VALUES
  ('CN[C@H](CC(C)C)C(=O)N[C@H]1C(=O)N[C@@H](CC(N)=O)C(=O)N[C@H]2C(=O)N[C@H]3C(=O)N[C@H](C(=O)N[C@H](C(=O)O)c4cc(O)cc(O)c4-c4cc3ccc4O)[C@H](O[C@H]3C[C@](C)(N)[C@@H](O)[C@H](C)O3)c3ccc(c(Cl)c3)Oc3cc2cc(c3O[C@@H]2O[C@H](CO)[C@@H](O)[C@H](O)[C@H]2O[C@H]2C[C@](C)(NCc3ccc(-c4ccc(Cl)cc4)cc3)[C@@H](O)[C@H](C)O2)Oc2ccc(cc2Cl)[C@H]1O [Oritavancin]', 'µg·h/mL', 2960);

* * *

Assay: Double-blind pharmacokinetic study of a single 1200 mg IV dose of oritavancin in healthy volunteers
Format: in vivo
Conditions: human, plasma, Cohort 2: 1200 mg IV, HPBCD formulation, D5W 250 mL, 2 h infusion, healthy subjects, average
REPORTED PROPERTY: Cmax (µg/mL)

INSERT INTO measurements (mol_smiles, reported_property, measurement_unit, observed_value) VALUES
  ('CN[C@H](CC(C)C)C(=O)N[C@H]1C(=O)N[C@@H](CC(N)=O)C(=O)N[C@H]2C(=O)N[C@H]3C(=O)N[C@H](C(=O)N[C@H](C(=O)O)c4cc(O)cc(O)c4-c4cc3ccc4O)[C@H](O[C@H]3C[C@](C)(N)[C@@H](O)[C@H](C)O3)c3ccc(c(Cl)c3)Oc3cc2cc(c3O[C@@H]2O[C@H](CO)[C@@H](O)[C@H](O)[C@H]2O[C@H]2C[C@](C)(NCc3ccc(-c4ccc(Cl)cc4)cc3)[C@@H](O)[C@H](C)O2)Oc2ccc(cc2Cl)[C@H]1O', 'Cmax', 'µg/mL', 153);

* * *

Test: Double-blind pharmacokinetic study of a single 1200 mg IV dose of oritavancin in healthy volunteers
Format: in vivo
Conditions: human, plasma, Cohort 3: 1200 mg IV, HPBCD formulation, D5W 250 mL, 1.5 h infusion, healthy subjects, average
REPORTED PROPERTY: Cmax (µg/mL)

INSERT INTO measurements (compound, reported_property, measurement_unit, observed_value) VALUES
  ('CN[C@H](CC(C)C)C(=O)N[C@H]1C(=O)N[C@@H](CC(N)=O)C(=O)N[C@H]2C(=O)N[C@H]3C(=O)N[C@H](C(=O)N[C@H](C(=O)O)c4cc(O)cc(O)c4-c4cc3ccc4O)[C@H](O[C@H]3C[C@](C)(N)[C@@H](O)[C@H](C)O3)c3ccc(c(Cl)c3)Oc3cc2cc(c3O[C@@H]2O[C@H](CO)[C@@H](O)[C@H](O)[C@H]2O[C@H]2C[C@](C)(NCc3ccc(-c4ccc(Cl)cc4)cc3)[C@@H](O)[C@H](C)O2)Oc2ccc(cc2Cl)[C@H]1O [Oritavancin]', 'Cmax', 'µg/mL', 177);

* * *

Assay: Double-blind pharmacokinetic study of a single 1200 mg IV dose of oritavancin in healthy volunteers
Assay type: in vivo
Details: human, plasma, Cohort 5: 1200 mg IV, HPBCD formulation, D5W 250 mL, 0.5 h infusion, healthy subjects, average
REPORTED PROPERTY: AUC(0-inf)

INSERT INTO results (mol_smiles, observed_value) VALUES
  ('CN[C@H](CC(C)C)C(=O)N[C@H]1C(=O)N[C@@H](CC(N)=O)C(=O)N[C@H]2C(=O)N[C@H]3C(=O)N[C@H](C(=O)N[C@H](C(=O)O)c4cc(O)cc(O)c4-c4cc3ccc4O)[C@H](O[C@H]3C[C@](C)(N)[C@@H](O)[C@H](C)O3)c3ccc(c(Cl)c3)Oc3cc2cc(c3O[C@@H]2O[C@H](CO)[C@@H](O)[C@H](O)[C@H]2O[C@H]2C[C@](C)(NCc3ccc(-c4ccc(Cl)cc4)cc3)[C@@H](O)[C@H](C)O2)Oc2ccc(cc2Cl)[C@H]1O', '3180 µg·h/mL');

* * *

Experiment: Pharmacokinetics in ABSSSI patients after single 1200 mg IV oritavancin (ORBACTIV) in 1000 mL D5W
Assay type: in vivo, human
Conditions: both sexes, human, plasma; per Orbactiv Package Insert (Comparative Example 4): 1200 mg IV, D5W, 3 h infusion; read-out: Cmax
REPORTED PROPERTY: Cmax (µg/mL)

INSERT INTO measurements (mol_smiles, reported_property, observed_value) VALUES
  ('CN[C@H](CC(C)C)C(=O)N[C@H]1C(=O)N[C@@H](CC(N)=O)C(=O)N[C@H]2C(=O)N[C@H]3C(=O)N[C@H](C(=O)N[C@H](C(=O)O)c4cc(O)cc(O)c4-c4cc3ccc4O)[C@H](O[C@H]3C[C@](C)(N)[C@@H](O)[C@H](C)O3)c3ccc(c(Cl)c3)Oc3cc2cc(c3O[C@@H]2O[C@H](CO)[C@@H](O)[C@H](O)[C@H]2O[C@H]2C[C@](C)(NCc3ccc(-c4ccc(Cl)cc4)cc3)[C@@H](O)[C@H](C)O2)Oc2ccc(cc2Cl)[C@H]1O', 'Cmax', 138);

* * *

Assay: Pharmacokinetics in ABSSSI patients after single 1200 mg IV oritavancin (ORBACTIV) in 1000 mL D5W
Assay type: in vivo, human
Conditions: both sexes, human, plasma, intravenous; 1200 mg dose in man; read-out: plasma exposure (AUC) in man
REPORTED PROPERTY: AUC

INSERT INTO results (mol_smiles, observed_value) VALUES
  ('CN[C@H](CC(C)C)C(=O)N[C@H]1C(=O)N[C@@H](CC(N)=O)C(=O)N[C@H]2C(=O)N[C@H]3C(=O)N[C@H](C(=O)N[C@H](C(=O)O)c4cc(O)cc(O)c4-c4cc3ccc4O)[C@H](O[C@H]3C[C@](C)(N)[C@@H](O)[C@H](C)O3)c3ccc(c(Cl)c3)Oc3cc2cc(c3O[C@@H]2O[C@H](CO)[C@@H](O)[C@H](O)[C@H]2O[C@H]2C[C@](C)(NCc3ccc(-c4ccc(Cl)cc4)cc3)[C@@H](O)[C@H](C)O2)Oc2ccc(cc2Cl)[C@H]1O', '~2800 µg·h/mL');

* * *

Assay: Pharmacokinetics in ABSSSI patients after single 1200 mg IV oritavancin (ORBACTIV) in 1000 mL D5W
Assay type: in vivo, human
Conditions: both sexes, human, plasma; mean, ABSSSI subjects, single 1200 mg IV dose over 3 hours (n = 297); read-out: Vss
REPORTED PROPERTY: Vd (L)

INSERT INTO measurements (mol_smiles, measurement_unit, observed_value) VALUES
  ('CN[C@H](CC(C)C)C(=O)N[C@H]1C(=O)N[C@@H](CC(N)=O)C(=O)N[C@H]2C(=O)N[C@H]3C(=O)N[C@H](C(=O)N[C@H](C(=O)O)c4cc(O)cc(O)c4-c4cc3ccc4O)[C@H](O[C@H]3C[C@](C)(N)[C@@H](O)[C@H](C)O3)c3ccc(c(Cl)c3)Oc3cc2cc(c3O[C@@H]2O[C@H](CO)[C@@H](O)[C@H](O)[C@H]2O[C@H]2C[C@](C)(NCc3ccc(-c4ccc(Cl)cc4)cc3)[C@@H](O)[C@H](C)O2)Oc2ccc(cc2Cl)[C@H]1O', 'L', 97.8);

* * *

Assay: Double-blind pharmacokinetic study of a single 1200 mg IV dose of oritavancin in healthy volunteers
Assay type: in vivo
Conditions: human, plasma, Cohort 6: 1200 mg IV, HPBCD formulation, NS 250 mL, 1 h infusion, healthy subjects, average
REPORTED PROPERTY: Cmax (µg/mL)

INSERT INTO measurements (compound, reported_property, observed_value) VALUES
  ('CN[C@H](CC(C)C)C(=O)N[C@H]1C(=O)N[C@@H](CC(N)=O)C(=O)N[C@H]2C(=O)N[C@H]3C(=O)N[C@H](C(=O)N[C@H](C(=O)O)c4cc(O)cc(O)c4-c4cc3ccc4O)[C@H](O[C@H]3C[C@](C)(N)[C@@H](O)[C@H](C)O3)c3ccc(c(Cl)c3)Oc3cc2cc(c3O[C@@H]2O[C@H](CO)[C@@H](O)[C@H](O)[C@H]2O[C@H]2C[C@](C)(NCc3ccc(-c4ccc(Cl)cc4)cc3)[C@@H](O)[C@H](C)O2)Oc2ccc(cc2Cl)[C@H]1O [Oritavancin]', 'Cmax', 206);
